- System: CCRF-CEM leukemia
- experiment_summary: NCI-60 one-dose screen, 48 h (100 = growth as untreated, 0 = no growth, -100 = all killed)
- particulars: 10 µM unless noted
Compounds without any hit were thinned out: in the full panel of roughly 83,000, 20% have a hit.

| compound | units | growth |
| --- | --- | --- |
| Cc1cccc(C)c1NCc1nnc(-c2ccco2)o1 | % | 91.4 |
| Clc1ccc2c(NCCCNC3CCCCC3)ccnc2c1 | % | 67.7 |
| COc1cc2c(cc1OC)C(Sc1ccc(Cl)cc1)c1c(nc(N)c(C#N)c1N)O2 (configuration not stated) | % | -7.67 |
| COCCOCCOCc1n(Cc2ccc3ccccc3n2)c2ccccc2[n+]1Cc1ccc2ccccc2n1 | % | 31.6 |
| CCOC(=O)c1sc(/N=C2\NC(=O)/C(=C/c3ccc(N4CCN(C)CC4)cc3)S2)nc1C | % | 91.7 |
| COc1cc(NCC(=O)Nc2cc(Nc3cccc(C(F)(F)F)c3)ncn2)c(Cl)c(OC)c1Cl | % | 72.5 |
| O=CN1N=C(c2ccc(Cl)cc2)CC1c1cccc(Nc2ccnc3cc(C(F)(F)F)ccc23)c1 (configuration not stated) | % | 51.7 |

====

- Test system: A498 renal
- experiment_summary: NCI-60 one-dose screen, 48 h (100 = growth as untreated, 0 = no growth, -100 = all killed)
- particulars: 10 µM unless noted
Compounds without any hit were thinned out: in the full panel of roughly 83,000, 20% have a hit.
Classification field: Satisfied = growth at or over 20%; Not satisfied = growth under 20%.

| molecule | cat |
| --- | --- |
| CN(C)CCCn1c2c(c3cc(-c4cccc(S(N)(=O)=O)c4)ccc3c1=O)C(=O)c1ccccc1-2 | Satisfied |
| COc1cc(-c2csc(NC(=O)Nc3cc(Cl)cc(Cl)c3)n2)cc(OC)c1OC | Not satisfied |
| Cc1ccc(SC2c3ccc(C)cc3Oc3nc(N)c(C#N)c(N)c32)cc1 (stereo unspecified) | Satisfied |
| O=C1CC23OC4ON=C(Br)C4C2C(O)c2ccccc2N13 (stereo unspecified) | Satisfied |
| COc1cc([C@H](C)c2ccc3ccccc3c2)cc(OC)c1OC | Not satisfied |

====

- Test system: NCI-H226 lung
- experiment_summary: NCI-60 one-dose screen, 48 h (100 = growth as untreated, 0 = no growth, -100 = all killed)
- particulars: 10 µM unless noted
This is part of a sample that, as a whole, favours compounds with a hit. Of some 83,000 tested, about 20% had one in any assay. Active and inactive are the calls of the source. Rule for the calls: active = growth percent below 10; inactive = the rest.
Listed compounds paired with reported growth

| compound | growth |
| --- | --- |
| CC(=O)OCC1SC(OC(C)=O)C(NC(=O)/C=C/CCl)C(OC(C)=O)C1OC(C)=O (stereo not given) | 103% (inactive) |
| CC(=O)O[C@@H]1C[C@]2(C)[C@H]3[C@H](O)C[C@@H]4C5=CC(C)(C)CC[C@]5(C)CC[C@@]4(C)[C@]3(C)CC[C@H]2C(C)(C)[C@H]1O | 99.4% (inactive) |
| COc1cc(C2=NN(C=O)C(c3cccc(Nc4ccnc5cc(C(F)(F)F)ccc45)c3)C2)cc(OC)c1OC (stereo not given) | 64.3% (inactive) |
| N#Cc1c(-c2ccc(Cl)cc2)cc(-c2cc3ccccc3o2)nc1SCC(=O)c1ccc(Cl)cc1 | 102% (inactive) |
| CN1CC=C(c2cc(NC(=O)Nc3ccc(Oc4ccnc(NC(=O)C5CC5)c4)c(F)c3)cc(C(F)(F)F)c2)CC1 | 4.49% (active) |
| COC(=O)CCc1cc(O)c2c(c1)[C@@H](C(=O)OC)[C@H](c1ccc(O)c(O)c1)O2 | 102% (inactive) |
| Nc1cccc(C(=O)Nc2ccc3c(O)c(N=Nc4ccc(N=Nc5ccc(S(=O)(=O)O)cc5)cc4)c(S(=O)(=O)O)cc3c2)c1 | 109% (inactive) |
| CCCCCCN1C(=O)CN=C1Nc1ccc2cc3ccc(NC4=NCC(=O)N4CCCCCC)cc3nc2c1 | 81.7% (inactive) |
| COc1cc(C(=O)Nc2cc(O)c(C/C=C(\C)CCC=C(C)C)c(O)c2)cc2c1O[C@]1(C)CC[C@@H](O)C(C)(C)[C@H]1C2 | 40.5% (inactive) |
| CC(=O)Nc1nc2c(c(N)c1C#N)C(c1cccc(Cl)c1)C1=C(CCCC1=O)N2c1sc2c(c1C#N)CCCC2 (stereo not given) | 55.5% (inactive) |
| c1ccc(-c2n(Cc3ccc4ccccc4n3)cc[n+]2Cc2ccc3ccccc3n2)cc1 | 36.2% (inactive) |
| N#Cc1c(-c2ccc(F)cc2)nc(N/N=C/c2c[nH]c3ccccc23)nc1N1CCOCC1 | 125% (inactive) |
| CCSc1ccc(C2C(Br)C(=O)N2c2cc(OC)c(OC)c(OC)c2)cc1 (stereo not given) | 50.2% (inactive) |
| CNC(=O)c1cc(Oc2ccc3c(c2)sc2nc(-c4ccc(NC(C)=O)cc4)cn23)ccn1 | 72.3% (inactive) |
| COc1ccc(C(=O)c2cc(OC)c(OC)c(OC)c2)cc1OC(=O)C(Cl)(Cl)Cl | 95.4% (inactive) |
| O=c1[nH]c(-c2cccc(F)c2)cc2cc(F)ccc12 | 96.3% (inactive) |
| NS(=O)(=O)c1ccc(-n2ncc(NC(=O)Nc3ccc(S(=O)(=O)Nc4nccs4)cc3)c2-c2ccccc2)cc1 | 104% (inactive) |
| C(=C\c1cn(-c2ccccc2)nc1-c1ccccc1)/c1nnc(-c2c[nH]c3ccccc23)o1 | 57.3% (inactive) |
| Nc1c(C(=O)Nc2ccccn2)sc2nc3c(cc12)CCCCCC3 | 42.1% (inactive) |
| O=C(Nc1cc(Br)ccn1)c1cc2cc(Nc3nc(-c4ccccc4)nc4ccccc34)ccc2oc1=O | 117% (inactive) |
| NC(=O)CN1C(=O)c2ccccc2C1=O | 101% (inactive) |
| c1cc(CNC23CC4CC(CC(C4)C2)C3)cc(C[N+](Cc2cccc(CNC34CC5CC(CC(C5)C3)C4)c2)(Cc2cccc(CNC34CC5CC(CC(C5)C3)C4)c2)Cc2cccc(CNC34CC5CC(CC(C5)C3)C4)c2)c1 (stereo not given) | 33.5% [42 µM] (inactive) |
| COc1ccc2nc(-c3ccc(Cl)cc3)cc(-c3nnc(SC/C(=N/O)c4ccccc4)o3)c2c1 | 42.7% (inactive) |
| NCCCn1c2c(c3cc(-c4ccn[nH]4)ccc3c1=O)C(=O)c1ccccc1-2 | 56.9% (inactive) |
| O=C1C(Cl)=C(Nc2ccc3c(c2NC2=C(Cl)C(=O)c4ccccc4C2=O)C(=O)c2ccccc2C3=O)C(=O)c2ccccc21 | 36.9% (inactive) |
| O=C(CCl)N1CCCc2ccccc21 | 101% (inactive) |
| CN1CCN(S(=O)(=O)O[C@@H]2C(=O)N(c3cc4c5ccccc5ccc4c4ccccc34)[C@H]2c2ccc(F)cn2)CC1 | 91.2% (inactive) |
| COc1ccc2nc(-c3ccc(Cl)cc3)cc(-c3nnc(SCC(=O)Nc4ccc(/C(C)=N\O)cc4)o3)c2c1 | 22.8% (inactive) |
| N#Cc1ccc(N2Cc3cc(Cl)ccc3OC3=C2C(=O)N(Cc2ccccc2)C3=O)cc1 | 100% (inactive) |
| COc1ccc(-c2cc(C(=O)N3N=C(c4ccc(N)cc4)CC3c3ccc(OC)cc3)c3cc(OC)ccc3n2)cc1 (stereo not given) | 94.9% (inactive) |
